target under test: Apolipoprotein L1 (Homo sapiens, UniProt O14791)
assay details: Inhibition of APOL1 G1 variant in human HEK293-T-REx cells measured by Thallium assay
pIC50: −log10 of the molar value.
measurement name: pIC50

compound: O=C([C@H]1C[C@H](c2c(-c3ccc(F)cc3)[nH]c3c(F)cc(F)cc32)C1)N1CCN(CCO)CC1
target under test: Apolipoprotein L1 (Homo sapiens, UniProt O14791)
result: < 6.00
--
compound: Cc1noc(CNC(=O)[C@H]2C[C@H](c3c(-c4ccc(F)cc4)[nH]c4c(F)cc(F)cc43)C2)n1
target under test: Apolipoprotein L1 (Homo sapiens, UniProt O14791)
result: > 6.60
--
compound: CC(CO)N(C)C(=O)NC[C@H]1C[C@H](c2c(-c3ccc(F)cc3)[nH]c3c(F)cc(F)cc32)C1 (some centres not stated)
target under test: Apolipoprotein L1 (Homo sapiens, UniProt O14791)
result: < 6.00
--
compound: CC1(C)CC(NC(=O)NC[C@H]2C[C@H](c3c(-c4ccc(F)cc4)[nH]c4c(F)cc(F)cc43)C2)C(=O)O1 (some centres not stated)
target under test: Apolipoprotein L1 (Homo sapiens, UniProt O14791)
result: < 6.00
--
compound: O=C(N[C@H]1C[C@H](O)C1)[C@H]1C[C@@H](c2c(-c3ccc(F)cc3)[nH]c3c(F)cc(F)cc32)C1
target under test: Apolipoprotein L1 (Homo sapiens, UniProt O14791)
result: < 6.00
--
compound: O=C(NC1CNC[C@@H]1O)[C@H]1C[C@H](c2c(-c3ccc(F)cc3)[nH]c3c(F)cc(F)cc32)C1 (some centres not stated)
target under test: Apolipoprotein L1 (Homo sapiens, UniProt O14791)
result: < 6.00
--
compound: CC(C)(C)[C@H](CO)NC(=O)NC[C@H]1C[C@H](c2c(-c3ccc(F)cc3)[nH]c3c(F)cc(F)cc32)C1
target under test: Apolipoprotein L1 (Homo sapiens, UniProt O14791)
result: < 6.00
--
compound: CNC(=O)CNC[C@H]1C[C@H](c2c(-c3ccc(F)cc3)[nH]c3c(F)cc(F)cc32)C1
target under test: Apolipoprotein L1 (Homo sapiens, UniProt O14791)
result: > 6.60
--
compound: O=C(CN[C@H]1C[C@H](c2c(-c3ccc(F)cc3)[nH]c3c(F)cc(F)cc32)C1)NC1CC1
target under test: Apolipoprotein L1 (Homo sapiens, UniProt O14791)
result: < 6.00
--
compound: CC(O)CNC(=O)[C@H]1C[C@H](c2c(-c3ccc(F)cc3)[nH]c3c(F)cc(F)cc32)C1 (some centres not stated)
target under test: Apolipoprotein L1 (Homo sapiens, UniProt O14791)
result: 9.60
--
compound: O=C([C@H]1C[C@H](c2c(-c3ccc(F)cc3)[nH]c3c(F)cc(F)cc32)C1)N1C[C@@H]2[C@@H](CO)[C@@H]2C1
target under test: Apolipoprotein L1 (Homo sapiens, UniProt O14791)
result: < 6.00
--
compound: O=C(N[C@@H]1CCC[C@@H]1O)[C@H]1C[C@H](c2c(-c3ccc(F)cc3)[nH]c3c(F)cc(F)cc32)C1
target under test: Apolipoprotein L1 (Homo sapiens, UniProt O14791)
result: < 6.00
--
compound: CN(CC1CC(c2c(-c3ccc(F)cc3)[nH]c3c(F)cc(F)cc23)C1)C(=O)N1CCC1 (configuration not stated)
target under test: Apolipoprotein L1 (Homo sapiens, UniProt O14791)
result: < 6.00
--
compound: C[C@H](O)[C@@H](CO)NC(=O)[C@H]1C[C@H](c2c(-c3ccc(F)cc3)[nH]c3c(F)cc(F)cc32)C1
target under test: Apolipoprotein L1 (Homo sapiens, UniProt O14791)
result: > 6.60
--
compound: O=C1CN(C(=O)[C@H]2C[C@H](c3c(-c4ccc(F)cc4)[nH]c4c(F)cc(F)cc43)C2)CCN1
target under test: Apolipoprotein L1 (Homo sapiens, UniProt O14791)
result: < 6.00
--
compound: C[C@H](O)CNC(=O)N(C)CC1CC(c2c(-c3ccc(F)cc3)[nH]c3c(F)cc(F)cc23)C1 (some centres not stated)
target under test: Apolipoprotein L1 (Homo sapiens, UniProt O14791)
result: < 6.00
--
compound: C[C@H](CO)NC(=O)CNC(=O)[C@H]1C[C@H](c2c(-c3ccc(F)cc3)[nH]c3c(F)cc(F)cc32)C1
target under test: Apolipoprotein L1 (Homo sapiens, UniProt O14791)
result: < 6.00
--
compound: Cn1cnc(CNC(=O)O[C@H]2C[C@H](c3c(-c4ccc(F)cc4)[nH]c4c(F)cc(F)cc43)C2)c1
target under test: Apolipoprotein L1 (Homo sapiens, UniProt O14791)
result: < 6.00
--
compound: O=C(N[C@@H](CO)C(F)(F)F)C1CC(Cc2c(-c3ccc(F)cc3)[nH]c3c(F)cc(F)cc23)C1 (some centres not stated)
target under test: Apolipoprotein L1 (Homo sapiens, UniProt O14791)
result: < 6.00
--
compound: C[C@@H](O)CNC(=O)N(C)CC1CC(c2c(-c3ccc(F)cc3)[nH]c3c(F)cc(F)cc23)C1 (some centres not stated)
target under test: Apolipoprotein L1 (Homo sapiens, UniProt O14791)
result: < 6.00
--
compound: NC(=O)[C@H]1CCN(C(=O)[C@H]2C[C@H](c3c(-c4ccc(F)cc4)[nH]c4c(F)cc(F)cc43)C2)C1
target under test: Apolipoprotein L1 (Homo sapiens, UniProt O14791)
result: < 6.00
--
compound: O=C(NCC(O)CO)O[C@H]1C[C@H](c2c(-c3ccc(F)cc3)[nH]c3c(F)cc(F)cc32)C1 (some centres not stated)
target under test: Apolipoprotein L1 (Homo sapiens, UniProt O14791)
result: < 6.00
--
compound: O=C([C@H]1C[C@H](c2c(-c3ccc(F)cc3)[nH]c3c(F)cc(F)cc32)C1)N1CC(OCC2CCCO2)C1 (some centres not stated)
target under test: Apolipoprotein L1 (Homo sapiens, UniProt O14791)
result: < 6.00
--
compound: O=C(N[C@H]1CCOC1=O)C1CC(Cc2c(-c3ccc(F)cc3)[nH]c3c(F)cc(F)cc23)C1 (some centres not stated)
target under test: Apolipoprotein L1 (Homo sapiens, UniProt O14791)
result: < 6.00
--
compound: O=C(NCC1CC1)O[C@H]1C[C@H](c2c(-c3ccc(F)cc3)[nH]c3c(F)cc(F)cc32)C1
target under test: Apolipoprotein L1 (Homo sapiens, UniProt O14791)
result: < 6.00
--
compound: Cn1cnc(CNC(=O)[C@H]2C[C@@H](c3c(-c4ccc(F)cc4)[nH]c4c(F)cc(F)cc43)C2)c1
target under test: Apolipoprotein L1 (Homo sapiens, UniProt O14791)
result: < 6.00
--
compound: O=C(N[C@@H](CO)C(F)F)[C@H]1C[C@@H](c2c(-c3ccc(F)cc3)[nH]c3c(F)cc(F)cc32)C1
target under test: Apolipoprotein L1 (Homo sapiens, UniProt O14791)
result: 9.60
--
compound: O=C(NC[C@@H](O)C(F)(F)F)NC[C@H]1C[C@H](c2c(-c3ccc(F)cc3)[nH]c3c(F)cc(F)cc32)C1 (relative stereo)
target under test: Apolipoprotein L1 (Homo sapiens, UniProt O14791)
result: < 6.00
--
compound: O=C(CC1CC(c2c(-c3ccc(F)cc3)[nH]c3c(F)cc(F)cc23)C1)N[C@@H]1CCNC1=O (some centres not stated)
target under test: Apolipoprotein L1 (Homo sapiens, UniProt O14791)
result: < 6.00
--
compound: CC(CO)NC(=O)O[C@H]1C[C@H](c2c(-c3ccc(F)cc3)[nH]c3c(F)cc(F)cc32)C1 (some centres not stated)
target under test: Apolipoprotein L1 (Homo sapiens, UniProt O14791)
result: 9.60
--
compound: O=C(NCc1ncc[nH]1)O[C@H]1C[C@H](c2c(-c3ccc(F)cc3)[nH]c3c(F)cc(F)cc32)C1
target under test: Apolipoprotein L1 (Homo sapiens, UniProt O14791)
result: < 6.00
--
compound: O=C(CNC[C@H]1C[C@H](c2c(-c3ccc(F)cc3)[nH]c3c(F)cc(F)cc32)C1)NCO
target under test: Apolipoprotein L1 (Homo sapiens, UniProt O14791)
result: > 6.60
